biological target: UniProt:Q9H8M2; assay: Degradation of BRD9 (IF), immunofluorescence in MV4-11 cells, 24 hours (Assay Protocol 2); format: cell-based; set-up: A suspension of MV4-11 cells (ATCC CRL-9591) was prepared; host or cells: MV4-11; settings: MV4-11, Assay protocol 2; BRD9 degradation; read-out: Dmax
Sequence (Q9H8M2 whole entry): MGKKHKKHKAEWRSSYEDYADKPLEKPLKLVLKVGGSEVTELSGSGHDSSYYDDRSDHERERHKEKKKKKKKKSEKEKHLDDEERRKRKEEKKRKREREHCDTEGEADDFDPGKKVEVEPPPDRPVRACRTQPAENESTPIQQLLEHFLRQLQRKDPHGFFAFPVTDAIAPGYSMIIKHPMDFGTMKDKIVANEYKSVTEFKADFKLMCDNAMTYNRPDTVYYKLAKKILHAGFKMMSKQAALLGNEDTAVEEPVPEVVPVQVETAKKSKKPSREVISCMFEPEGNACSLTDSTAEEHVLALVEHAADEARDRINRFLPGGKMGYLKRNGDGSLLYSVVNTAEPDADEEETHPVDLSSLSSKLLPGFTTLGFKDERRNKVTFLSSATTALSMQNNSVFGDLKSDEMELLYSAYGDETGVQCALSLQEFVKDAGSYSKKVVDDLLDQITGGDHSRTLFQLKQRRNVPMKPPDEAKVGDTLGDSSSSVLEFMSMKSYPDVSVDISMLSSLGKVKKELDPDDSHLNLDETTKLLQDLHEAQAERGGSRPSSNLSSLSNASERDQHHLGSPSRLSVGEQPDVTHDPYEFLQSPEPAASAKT

Compound	Dmax
COc1cc(-c2cn(C)c(=O)c(C)c2C)cc(OC)c1CN1C[C@@H](C)N(Cc2cccc3c2CCN(C(=O)/C(C#N)=C/C(C)(C)C)C3C)C[C@@H]1C (mixture of isomers)	> 75%
COc1cc(-c2cn(C)c(=O)c(C)c2C)cc(OC)c1CN1CCN(Cc2cccc3c2CCN(C(=O)/C(C#N)=C/C2(C)CCCCC2)C3C)C2(CC2)C1 (mixture of isomers)	70 to 75%
CC[C@H]1c2cccc(CN3CCN(Cc4c(OC)cc(-c5cn(C)c(=O)c(C)c5C)cc4OC)C4(CC4)C3)c2CCN1C(=O)/C(C#N)=C/C(C)(C)C (single isomer, unassigned)	40 to 70%
COc1cc(-c2cn(C)c(=O)c(C)c2C)cc(OC)c1CN1CCN(Cc2cccc3c2CCN(C(=O)/C(C#N)=C/C2CCCCC2)C3C)CC1 (mixture of isomers)	40 to 70%
COc1cc(-c2cn(C)c(=O)c(C)c2C)cc(OC)c1CN1CCCN(Cc2cccc3c2CCN(C(=O)/C(C#N)=C/C(C)(C)CF)[C@@H]3C(C)C)CC1 (mixture of isomers)	> 75%
